Items are presented alongside their recorded GI50.
test system: MDA-MB-435; assay: NCI tumour cell line growth inhibition, 48 h
Calls of active or inactive are those of the source. Rule as the data show it: active = GI50 up to about 1.1 µM and inactive = higher.

compound=Cc1nc(-c2cccnc2)sc1C(=O)CC(=O)C(=O)Nc1cccc(NC(=O)C(=O)CC(=O)c2sc(-c3cccnc3)nc2C)n1 recorded_value="> 100 µM (inactive)"

Please look at the following compound next.
For the compound COc1cccc(-c2cc(=O)c3ccccc3o2)c1N , the measured GI50 on MDA-MB-435 was 23 µM (inactive)

----------
Items are presented alongside their recorded GI50.
test system: SR; test: NCI tumour cell line growth inhibition, 48 h
Activity calls are given as the source filed them. No stated cut-off is given here; in the data, active = GI50 up to about 1.1 µM and inactive = higher. Where a SMILES comes first, the peptide text is derived from it. [ ]: non-standard residue; d: D form. Phe(4-NO2) = N[CH](Cc1ccc([N+](=O)[O-])cc1)C(=O)O

Some molecules with known GI50 results, for comparison:
molecule="CC1=C(C(N)=O)C(c2ccncc2)C(C#N)=C2SCC(=O)N12 (stereo not given)" outcome_measure=GI50 recorded_value="> 100 µM (inactive)"
molecule=CC(=O)Nc1ccccc1-c1cnc2ccccc2n1 outcome_measure=GI50 recorded_value="> 100 µM (inactive)"

For the molecule COC(=O)CCC(NC(=O)C(CCC(=O)OC)NC(=O)C(CCC(=O)OC)NC(=O)C(CCC(=O)OC)NC(=O)C(CCC(=O)OC)NC(=O)C(Cc1ccc([N+](=O)[O-])cc1)NC(=O)C(CCC(=O)OC)NC(=O)C(CCC(=O)OC)NC(=O)C(CCC(=O)OC)NC(=O)C(CCC(=O)OC)NC(=O)C(CCC(=O)OC)NC(C)=O)C(N)=O (stereo not given) (Ac-E(OMe)E(OMe)E(OMe)E(OMe)E(OMe)[Phe(4-NO2)]E(OMe)E(OMe)E(OMe)E(OMe)E(OMe)-NH2; configuration not given here) , the measured GI50 on SR was > 100 µM (inactive)

For the molecule O=C(CC(=O)n1nc(-c2ccccc2)c(/N=N/c2ccccc2C(=O)O)c1-c1ccccc1)Nc1ccc(Cl)cc1 , the measured GI50 on SR was 11.6 µM (inactive)

For the molecule O=c1/c(=C/c2ccccc2F)sc2nc3ccccc3n12 , the measured GI50 on SR was 38.3 µM (inactive)

----------
test system: SF-295; experiment: NCI tumour cell line growth inhibition, 48 h
The source made the active and inactive calls. Cut-off read from the data, not from the text of the source: active = GI50 up to about 1.1 µM and inactive = higher.
Give your call using only these classes: active, inactive

Worked examples, 3 compounds total:
compound="CCOC(=O)C1CCC(=O)N1C(=O)c1ccccc1Cl (configuration not stated)" study_target=SF-295 class_name=inactive
compound=NNC(=O)c1nnn(CCc2ccccc2)c1C(=O)NN study_target=SF-295 class_name=inactive
compound=O=C1Nc2ccccc2C(=O)/C1=C/NC(=S)NCc1ccccc1 study_target=SF-295 class_name=inactive

stdin: Each compound tested received a call. Report the one for O=C(/C=C/c1cccs1)c1ccc(Cl)s1 .
stdout: inactive

stdin: Each compound tested received a call. Report the one for COc1ccccc1C1SCC(=O)N1c1ccc(-n2c(-c3ccccc3)nc3ccccc3c2=O)cc1 (configuration not stated) .
stdout: inactive

stdin: Each compound tested received a call. Report the one for COc1cccc2c1C(=O)c1c(O)c3c(c(O)c1C2=O)C[C@@](O)(C(C)O)C[C@@H]3OC1CC(N)C(O)C(C)O1 (some centres not stated) .
stdout: inactive

stdin: Each compound tested received a call. Report the one for C=CCNC1=C(C(=O)OCC)C(=O)CO1 .
stdout: inactive

stdin: Each compound tested received a call. Report the one for CCCC(=O)N/S(=N/S(=O)(=O)c1ccc(Cl)cc1)C(Cl)(Cl)Cl (configuration not stated) .
stdout: inactive

stdin: Each compound tested received a call. Report the one for NCCC1(N)CCNCC1 .
stdout: inactive

stdin: Each compound tested received a call. Report the one for Cc1ccc(C(=O)/C=C(O)/C(O)=C/C(=O)c2ccc(C)cc2C)c(C)c1 .
stdout: inactive

stdin: Each compound tested received a call. Report the one for CC(=O)c1sc2c(c1O)c(=O)n(-c1ccccc1)c(=S)n2-c1ccccc1 .
stdout: inactive

stdin: Each compound tested received a call. Report the one for Nc1ncc(CN2CCCC2)c(-c2ccccc2O)n1 .
stdout: inactive

stdin: Each compound tested received a call. Report the one for Cc1ccc(C(=O)NCc2ccccc2)cc1/N=N/N(C)C .
stdout: inactive

stdin: Each compound tested received a call. Report the one for COC(=O)C1=C(C(=O)OC)SC2(S1)C(C(=O)OC)=C(C(=O)OC)Sc1c2ssc1=O .
stdout: inactive

stdin: Each compound tested received a call. Report the one for CC(=O)NNc1nc(C)c(C(=O)NNC(=O)C(=O)Nc2ccc(C)cc2[N+](=O)[O-])s1 .
stdout: inactive

stdin: Each compound tested received a call. Report the one for COc1cc2c(c(OC)c1OC)-c1ccc(SC)c(=O)cc1C(NC(=O)c1ccccc1)CC2 (configuration not stated) .
stdout: active

stdin: Each compound tested received a call. Report the one for CC1=NOC(=O)/C1=C/c1ccccc1O .
stdout: inactive

stdin: Each compound tested received a call. Report the one for O=S(=O)(c1ccccc1)n1c(C(O)c2ccccc2)cc2ccccc21 (configuration not stated) .
stdout: inactive

stdin: Each compound tested received a call. Report the one for O=C(CCCN1CCC(Nc2ccc(F)cc2)(c2nnnn2C2CCCCC2)CC1)c1ccc(F)cc1 .
stdout: inactive

stdin: Each compound tested received a call. Report the one for CN(c1ccc(Cl)cc1)S(=O)(=O)c1cccc([N+](=O)[O-])c1 .
stdout: inactive

stdin: Each compound tested received a call. Report the one for COc1ccc(C(=O)c2sc(Nc3ccccc3)nc2N)cc1 .
stdout: inactive

stdin: Each compound tested received a call. Report the one for C[S+]([O-])c1ncc2c(n1)-c1ccccc1OC2 (configuration not stated) .
stdout: inactive

----------
tested on: OVCAR-3; test: NCI tumour cell line growth inhibition, 48 h
Activity calls are given as the source filed them. No stated cut-off is given here; in the data, active = GI50 up to about 1.1 µM and inactive = higher.
Items are presented alongside their recorded GI50.

Some molecules with known GI50 results, for comparison:
molecule=S=c1sc2c(Cl)nc(Cl)nc2n1-c1ccccc1 outcome_measure=GI50 recorded_value="22.9 µM (inactive)"
molecule=COc1cc2c(NCCCCCO)ncnc2c(OC)c1OC outcome_measure=GI50 recorded_value="> 100 µM (inactive)"

For the molecule COc1cc(-c2cccs2)sc1-c1cccs1 , the measured GI50 on OVCAR-3 was 63.8 µM (inactive)

For the molecule NCCNCC1CCNCC1 , the measured GI50 on OVCAR-3 was > 100 µM (inactive)

----------
test system: M14; assay: NCI tumour cell line growth inhibition, 48 h
The source made the active and inactive calls. Rule as the data show it: active = GI50 up to about 1.1 µM and inactive = higher.
outcome.measure: GI50

Some compounds with known GI50 results, for comparison:
compound="CCOC(=O)C1CCC(=O)N1C(=O)c1ccccc1Cl (stereo not given)" recorded_value="> 100 µM (inactive)"
compound="CN1c2ccccc2C(=O)NC12CCN(CC1COc3ccccc3O1)CC2 (stereo not given)" recorded_value="27.8 µM (inactive)"
compound="CC(=O)N1c2ccccc2C(C)C1c1[nH]c2ccccc2c1C (stereo not given)" recorded_value="18.7 µM (inactive)"
compound=CC1(C)CC(=O)C(=CNc2nc(-c3cccc([N+](=O)[O-])c3)cs2)C(=O)C1 recorded_value="15.8 µM (inactive)"

get_value(item= Nc1c(Br)cc(-c2nc3ccccc3s2)cc1Br , readout=GI50) returns > 100 µM (inactive)

get_value(item= CC1[C@@H](OCc2ccccc2)COC(=O)N1Cc1ccccc1 (stereo not given in full) , readout=GI50) returns > 100 µM (inactive)

get_value(item= O=C1C(Cl)=C(c2ccc([N+](=O)[O-])cc2)C(=O)c2c(O)cccc21 , readout=GI50) returns 0.979 µM (active)

get_value(item= COc1ccc(C2C(C)C(=O)C(C)C(c3ccc(OC)cc3)N2N=O)cc1 (stereo not given) , readout=GI50) returns 537 µM (inactive)

get_value(item= COC(=O)Nc1nc2cc(Br)ccc2[nH]1 , readout=GI50) returns 43.9 µM (inactive)

get_value(item= CCOC(=O)Cc1cc(=O)[nH]c(-n2[nH]c(C)c(CCO)c2=O)n1 , readout=GI50) returns > 100 µM (inactive)

get_value(item= C[C@H](CCC(=O)O[C@@H]1CC[C@@]2(C)C(CC[C@H]3[C@@H]4CC[C@H]([C@H](C)CCc5nc6ccccc6[nH]5)[C@@]4(C)CC[C@@H]32)C1)[C@H]1CC[C@H]2[C@@H]3CCC4C[C@H](O)CC[C@]4(C)[C@H]3CC[C@]12C (stereo not given in full) , readout=GI50) returns > 100 µM (inactive)

----------
test system: RXF 393; experiment: NCI tumour cell line growth inhibition, 48 h
Activity calls are given as the source filed them. No stated cut-off is given here; in the data, active = GI50 up to about 1.1 µM and inactive = higher.
Give your call using only these classes: YES (active), NO (inactive)

molecule="C=C1[C@@H]2CCC3[C@]4(C)C(CC[C@@]5(C)C(=O)O[C@H](O)[C@@H]45)[C@H](O)[C@]3(C2)[C@H]1OC1OC(CO)C(O)C(O)C1O (stereo not given in full)" class_name=NO
molecule=COc1ccc(C(=O)Cn2c(C(C)=O)nc3ccccc32)cc1 class_name=NO

stdin: Each molecule tested received a call. Report the one for C=C1CC2(CC(c3ccccc3OC)OC(c3ccccc3OC)C2)OC1=O (stereo not given) .
stdout: NO

stdin: Each molecule tested received a call. Report the one for Cc1cnc(NCCCN(C)C)c2c1[nH]c1ccc3cc(O)ccc3c12 .
stdout: YES

stdin: Each molecule tested received a call. Report the one for CCCCCCCCCC/C=C/CC(=O)SCCNC(=O)CCNC(=O)[C@@H](O)C(C)(C)COP(=O)(O)OP(=O)(O)OCC1OC(n2cnc3c(N)ncnc32)C(O)C1OP(=O)(O)O (stereo not given in full) .
stdout: NO

stdin: Each molecule tested received a call. Report the one for CN(c1ccc(Cl)cc1)S(=O)(=O)c1cccc([N+](=O)[O-])c1 .
stdout: NO

stdin: Each molecule tested received a call. Report the one for COC(=O)c1ccccc1CC(Cc1ccc2c(c1)CCC2)C(=O)OC (stereo not given) .
stdout: NO

stdin: Each molecule tested received a call. Report the one for O=P(Nc1ccccc1)(Oc1ccccc1)N1CCN(c2ccccc2)CC1 (stereo not given) .
stdout: NO

stdin: Each molecule tested received a call. Report the one for O=C(O)/C(=C\c1ccccc1)Cc1ccccc1 .
stdout: NO

stdin: Each molecule tested received a call. Report the one for CC(C)(Oc1ccc(Cl)cc1)C(=O)N(C(=O)N1CCN(c2ccccc2)CC1)c1ccccc1 .
stdout: NO

stdin: Each molecule tested received a call. Report the one for COc1ccc2[nH]c3c(O)c(-c4c(C)cc5c([nH]c6ccc(OC)cc65)c4O)c(C)cc3c2c1 .
stdout: NO

stdin: Each molecule tested received a call. Report the one for O=C1OC(O)C(Oc2c(Cl)cccc2Cl)=C1Cl (stereo not given) .
stdout: NO

stdin: Each molecule tested received a call. Report the one for COc1c(C)cc2c(C(C)C)c(O)c(O)c(C=O)c2c1O .
stdout: NO

stdin: Each molecule tested received a call. Report the one for O=C(c1ccncc1)C1C(=O)c2ccccc2C1C1(O)c2ccccc2CC1C(O)c1ccncc1 (stereo not given) .
stdout: NO

stdin: Each molecule tested received a call. Report the one for CC(C)=CCCC(C)C1=C(O)C(=O)C(C)=CC1=O (stereo not given) .
stdout: NO

stdin: Each molecule tested received a call. Report the one for CC[C@@H]1CSC(/C=C/C2OC3OC(C)(C)OC3C3OC(C)(C)OC23)=N1 (stereo not given in full) .
stdout: NO

stdin: Each molecule tested received a call. Report the one for O=c1ccn2n1CCCCC2 .
stdout: NO
